Values were extracted from paper PMC8343220.

Listed here are compounds together with their documented cAMP accumulation (in presence of forskolin) Log EC50.
Target: human α1B‐adrenoceptor (Homo sapiens, UniProt P35368)
Construct: expressed in transfected cells; host or cells: CHO-K1
Sequence (P35368 whole entry): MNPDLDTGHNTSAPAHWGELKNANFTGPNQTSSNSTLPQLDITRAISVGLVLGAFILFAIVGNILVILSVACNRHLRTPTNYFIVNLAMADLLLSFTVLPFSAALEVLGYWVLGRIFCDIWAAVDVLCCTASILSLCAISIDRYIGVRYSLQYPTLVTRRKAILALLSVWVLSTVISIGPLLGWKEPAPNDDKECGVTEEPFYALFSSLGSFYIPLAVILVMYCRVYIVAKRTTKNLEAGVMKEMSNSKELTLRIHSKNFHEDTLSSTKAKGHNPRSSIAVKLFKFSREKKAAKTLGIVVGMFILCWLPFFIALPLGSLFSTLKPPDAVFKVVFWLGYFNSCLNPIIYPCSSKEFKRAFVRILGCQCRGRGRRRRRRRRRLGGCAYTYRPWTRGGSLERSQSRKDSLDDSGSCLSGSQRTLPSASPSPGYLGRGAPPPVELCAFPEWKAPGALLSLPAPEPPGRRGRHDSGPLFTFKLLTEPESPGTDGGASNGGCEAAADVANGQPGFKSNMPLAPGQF
Experiment: ^3H‐cAMP accumulation in the presence of 10 μM forskolin, CHO‐α1B cells
Type: cell-based
Settings: CHO‐α1B cells; in presence of forskolin
Measurement label: cAMP accumulation (in presence of forskolin) Log EC50

Compound: Nc1cc(Cl)c(N=C2NCCN2)c(Cl)c1 [para‐amino‐clonidine]
Reported: −7.31
//
Compound: CCc1cccc(CC)c1NC1=NCCN1 [ST‐91]
Reported: −7.23
//
Compound: CS(=O)(=O)Nc1c(O)ccc2c1CCCC2C1=NCCN1 (stereo not shown) [A61603]
Reported: −6.16
//
Compound: CC(N)C(O)c1ccc(O)c(O)c1 (stereo not drawn) [α‐Methylnorepinephrine]
Reported: −5.56

###

Molecular target: human α1A‐adrenoceptor (Homo sapiens)
Construct: expressed in transfected cells; host or cells: CHO-K1
Sequence (P35348 whole entry): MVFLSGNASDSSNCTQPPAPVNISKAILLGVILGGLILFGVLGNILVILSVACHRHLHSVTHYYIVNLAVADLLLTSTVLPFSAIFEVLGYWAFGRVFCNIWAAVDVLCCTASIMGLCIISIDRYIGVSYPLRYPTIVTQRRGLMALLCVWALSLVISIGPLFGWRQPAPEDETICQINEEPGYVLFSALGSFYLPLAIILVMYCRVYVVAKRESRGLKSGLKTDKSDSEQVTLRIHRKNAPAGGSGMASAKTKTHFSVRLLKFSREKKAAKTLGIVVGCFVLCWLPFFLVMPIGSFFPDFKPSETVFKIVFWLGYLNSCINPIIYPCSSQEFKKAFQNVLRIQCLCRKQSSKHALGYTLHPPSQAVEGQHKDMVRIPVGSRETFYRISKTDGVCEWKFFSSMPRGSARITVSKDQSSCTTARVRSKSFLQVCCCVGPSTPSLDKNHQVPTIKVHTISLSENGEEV
Test: Intracellular free calcium mobilization, CHO‐α1A cells
Format: cell-based
Friendly reminder: Intracellular calcium release Log EC50 below -7 is criterion met, at or above is criterion not met.

Compound: C=CCN1CCc2nc(N)sc2CC1
Classification: criterion not met
--
Compound: Nc1cc(Cl)c(N=C2NCCN2)c(Cl)c1
Classification: criterion met
--
Compound: O=C1CCC(=O)N1C[C@H]1CC[C@H]2CN(c3ncccn3)CCN2C1 [Sunepitrion]
Classification: criterion not met
--
Compound: CC(N)C(O)c1ccc(O)c(O)c1 (stereo not drawn) [α‐Methylnorepinephrine]
Classification: criterion met

###

This listing pairs compounds with measured pEC50.
Target: human α1D‐adrenoceptor (full length) (Homo sapiens, UniProt P25100)
Construct: human α1D‐adrenoceptor (full length) were used; expressed in transfected cells; host or cells: CHO-K1
Sequence (P25100 whole entry): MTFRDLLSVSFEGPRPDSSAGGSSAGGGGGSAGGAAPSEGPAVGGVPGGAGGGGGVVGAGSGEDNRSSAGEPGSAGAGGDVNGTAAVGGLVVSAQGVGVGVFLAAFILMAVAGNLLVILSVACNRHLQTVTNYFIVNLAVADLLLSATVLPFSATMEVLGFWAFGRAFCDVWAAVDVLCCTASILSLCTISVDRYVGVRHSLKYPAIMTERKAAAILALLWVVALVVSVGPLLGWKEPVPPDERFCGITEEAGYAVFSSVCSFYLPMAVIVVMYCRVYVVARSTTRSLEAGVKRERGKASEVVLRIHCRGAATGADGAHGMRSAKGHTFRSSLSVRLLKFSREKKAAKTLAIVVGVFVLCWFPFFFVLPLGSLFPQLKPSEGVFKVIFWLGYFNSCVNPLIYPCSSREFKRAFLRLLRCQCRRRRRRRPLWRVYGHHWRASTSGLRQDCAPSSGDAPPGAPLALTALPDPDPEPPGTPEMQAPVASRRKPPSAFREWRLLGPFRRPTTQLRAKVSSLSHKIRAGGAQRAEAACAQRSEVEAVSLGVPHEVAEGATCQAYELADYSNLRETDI
Experiment: ^3H‐cAMP accumulation in the presence of 10 μM forskolin, CHO‐α1D cells
Format: cell-based
Settings: CHO‐α1D cells; in presence of forskolin; log values given negative
pEC50: −log10 of the molar value.

Compound: NCC(O)c1ccc(O)cc1 (centres unmarked)
pEC50: 5.74
--
Compound: N=C(N)NC(=O)Cc1c(Cl)cccc1Cl
pEC50: 6.64
--
Compound: CNC[C@H](O)c1ccc(O)c(O)c1
pEC50: 6.06
--
Compound: CNC[C@H](O)c1cccc(O)c1
pEC50: 6.77
--
Compound: C[C@H](N)[C@H](O)c1cccc(O)c1
pEC50: 6.49
--
Compound: CC(CCc1ccc(O)cc1)NCCc1ccc(O)c(O)c1 (centres unmarked)
pEC50: 6.51
--
Compound: CCNCC(O)c1cccc(O)c1 (centres unmarked)
pEC50: 6.12
--
Compound: COc1ccc(OC)c(C(O)C(C)N)c1 (centres unmarked)
pEC50: 4.98

###

Biological target: human α1D‐adrenoceptor (full length) (Homo sapiens)
Construct: human α1D‐adrenoceptor (full length) were used; expressed in transfected cells; host or cells: CHO-K1
Assay: ERK1/2‐phosphorylation (Surefire Alphascreen), CHO‐α1D cells
Type: cell-based
Quick reference for ERK1/2‐phosphorylation % PDBu among some molecules

Molecule: CNCC(O)c1ccc(O)cc1 (stereo not shown) [Synephrine]
ERK1/2‐phosphorylation % PDBu [%]: 14.5
//
Molecule: CC(N)C(O)c1ccc(O)c(O)c1 (stereo not drawn) [α‐Methylnorepinephrine]
ERK1/2‐phosphorylation % PDBu [%]: 27.7
//
Molecule: Cc1cc(C(C)(C)C)cc(C)c1CC1=NCCN1
ERK1/2‐phosphorylation % PDBu [%]: 70.8
//
Molecule: Cc1cccc(C(C)c2cnc[nH]2)c1C (stereo not shown)
ERK1/2‐phosphorylation % PDBu [%]: 22.6
//
Molecule: NCC(O)c1ccc(O)cc1 (stereo not shown)
ERK1/2‐phosphorylation % PDBu [%]: 14.5
//
Molecule: C=CCc1ccccc1OC(C)C1=NCCN1 (stereo not shown)
ERK1/2‐phosphorylation % PDBu [%]: 29.1
//
Molecule: CN1C[C@H](C(=O)N[C@]2(C)O[C@@]3(O)[C@@H]4CCCN4C(=O)[C@H](Cc4ccccc4)N3C2=O)C[C@@H]2c3cccc4[nH]cc(c34)C[C@H]21 [Dihydroergotamine]
ERK1/2‐phosphorylation % PDBu [%]: 32.9
